- Test system: HIV-1IIIB
- experiment.description: microbe, parasite or virus in culture
- assay.context: Human immunodeficiency virus 1
experimental.endpoint: pEC50
Numbers only, as −log10 of the molar value.

Recorded pEC50 of Cc1cn([C@H]2C[C@H](N=[N+]=[N-])[C@@H](CO)O2)c(=O)[nH]c1=O [AZT, reference compound] , please.
8.15

###

- Test system: CEM-SS cells
- experiment.description: in vitro
- assay.context: human, 6 days
No end group written: not given here.
experimental.endpoint: CC50

Fill in the recorded CC50 for this sequence, with CEM-SS cells as test system: HVDKKVADKVLLLKQLRIMRLLTRL [Spinigerin, reference compound]
> 33.3 µM

###

Task for the reader: assign each of the following substances its reported pEC50.
- System: HIV-1IIIB
- experiment.description: microbe, parasite or virus in culture
- assay.context: Table 1; CEM-SS cells, HIV-1IIIB, six days; 50% inhibition of virus replication
pEC50: −log10 of the molar value. No end group written: not given here.

Solved cases below.
[
  {
    "substance": "LLKELWTKIKGAGKAVLGKIKGLL [Ponericin L2, reference compound]",
    "pEC50": 5.85
  },
  {
    "substance": "GNNRPVYIPQPRPPHPRI [Apidaecin IA, reference compound]",
    "pEC50": "< 4.32"
  },
  {
    "substance": "GLNTLKKVFQGLHEAIKLINNHVQ [Psuedin 1, reference compound]",
    "pEC50": 4.45
  },
  {
    "substance": "RPKHPIKHQGLPQEVLNENLLRF [Isracidin, reference compound]",
    "pEC50": "< 4.44"
  },
  {
    "substance": "RQRVEELSKFSKKGAAARRRK [Misgurin, reference compound]",
    "pEC50": "< 4.40"
  }
]

// each listed substance needs a value for pEC50
1. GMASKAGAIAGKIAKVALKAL-NH2 [PGLa, reference compound]
2. KGRGKQGGKVRAKAKTRSS [Parasin I, reference compound]
3. GFGKAFHSVSNFAKKHKTA-NH2 [Styelin A, reference compound]
4. IKWKKLLRAAKRIL-NH2 [Peptide D74]
5. FFGKVLKLIRKIF-NH2 [Peptide D76]
6. INLKAIAALAKKLL [Mastoparan M, reference compound]
7. SLSRFLRFLKIVYRRAF-NH2 [Peptide D98]

1: < 4.29; 2: < 4.30; 3: < 4.31; 4: < 4.24; 5: 6.20; 6: < 4.17; 7: 6.08

###

Task for the reader: assign each of the following compounds its reported CC50 at 6 days.
- experiment.description: Cytotoxicity in the CPE assay (XTT, 50% reduction in cell viability)
- assay.context: human, CEM-SS cells

[
  {
    "compound": "CC[C@@H](C)[C@@H](NC(=O)[C@H](CCCNC(=N)N)NC(=O)[C@H](CCC(N)=O)NC(=O)[C@@H](NC(=O)[C@@H](NC(=O)[C@H](CCCNC(=N)N)NC(=O)[C@H](CCCCN)NC(=O)[C@H](Cc1ccccc1)NC(=O)CN)[C@@H](C)CC)C(C)C)C(=O)N[C@@H](CCCCN)C(=O)N[C@@H](CC(=O)O)C(=O)N[C@@H](Cc1ccccc1)C(=O)N[C@@H](CC(C)C)C(=O)N[C@@H](CCCNC(=N)N)C(=O)N[C@@H](CC(N)=O)C(=O)N[C@@H](CC(C)C)C(=O)N[C@H](C(N)=O)C(C)C [GF-17d1]",
    "CC50 at 6 days": "22.7 µM"
  }
]

Consider the additional compound presented here.
Recorded CC50 at 6 days of CC[C@@H](C)[C@@H](NC(=O)[C@H](CCCNC(=N)N)NC(=O)[C@H](CCC(N)=O)NC(=O)[C@@H](NC(=O)[C@@H](NC(=O)[C@H](CCCNC(=N)N)NC(=O)[C@H](CCCCN)NC(=O)[C@H](Cc1ccccc1)NC(=O)CN)[C@@H](C)CC)C(C)C)C(=O)N[C@@H](CCCCN)C(=O)N[C@@H](CC(=O)O)C(=O)N[C@@H](Cc1ccccc1)C(=O)N[C@H](CC(C)C)C(=O)N[C@@H](CCCNC(=N)N)C(=O)N[C@@H](CC(N)=O)C(=O)N[C@@H](CC(C)C)C(=O)N[C@H](C(N)=O)C(C)C [GF-17d2] , please.
> 47.5 µM

###

- experiment.description: in vitro
- assay.context: human
experimental.endpoint: CC50 at 6 days (µM)
One number for each entry, in µM.

Recorded CC50 at 6 days of CC[C@H](C)[C@H](NC(=O)[C@H](CCCNC(=N)N)NC(=O)[C@H](CCC(N)=O)NC(=O)[C@@H](NC(=O)[C@@H](NC(=O)[C@H](CCCNC(=N)N)NC(=O)[C@H](CCCCN)NC(=O)[C@H](Cc1ccccc1)NC(=O)CN)[C@@H](C)CC)C(C)C)C(=O)N[C@@H](CCCCN)C(=O)N[C@@H](CC(=O)O)C(=O)N[C@@H](Cc1ccccc1)C(=O)N[C@@H](CC(C)C)C(=O)N[C@@H](CCCNC(=N)N)C(=O)N[C@@H](CC(N)=O)C(=O)N[C@@H](CC(C)C)C(=O)N[C@H](C(N)=O)C(C)C [GF-17] , please.
8.9

###

- experiment.description: in vitro
- assay.context: human
No end group written: not given here.
experimental.endpoint: CC50 at 6 days (µM)
Numbers only, in µM.

Solved cases below.
[
  {
    "substance": "GIKEFKREFQRIKDFLRNLV-NH2 [GI-20EF]",
    "CC50 at 6 days, µM": 9.9
  },
  {
    "substance": "GIKEWKRIVQRIKDFLRNLV-NH2 [GI-20W17]",
    "CC50 at 6 days, µM": 23.6
  },
  {
    "substance": "GIKQFKRIVQRIKDFLRNLV-NH2 [GI-20Q16]",
    "CC50 at 6 days, µM": 13.7
  },
  {
    "substance": "LLGDLLRKSKEKIGKEFKRIVQRIKDFLRNLVPRTES [LL-37, reference compound]",
    "CC50 at 6 days, µM": 18.4
  },
  {
    "substance": "FKRIVQRIKDFLR-NH2 [FK-13]",
    "CC50 at 6 days, µM": 10.4
  }
]

// each listed substance needs a value for CC50 at 6 days
1. FFGKVLKLIRKIF-NH2 [Peptide D76]
2. GIKEFKRIVQRIKDFLRNLV-NH2 [GI-20]
3. GRFKRFRKPFKKLFKKIS-NH2 [BMAP-18P9]
4. RLFDKIRQVIRKF-NH2 [Retro-FK13]

1: 6.78; 2: 22.7; 3: 18.9; 4: 33.7

###

- Tested on: HIV-1IIIB
- experiment.description: microbe, parasite or virus in culture
- assay.context: Table 1; CEM-SS cells, HIV-1IIIB, six days; 50% inhibition of virus replication
pEC50: −log10 of the molar value. No end group written: not given here.
experimental.endpoint: pEC50

Solved cases below.
[
  {
    "substance": "GKPRPYSPRPTSHPRPIRV [Drosocin, reference compound]",
    "pEC50": "< 4.34"
  },
  {
    "substance": "GAWKNFWSSLRKGFYDGEAGRAIRR [Peptide D94, reference compound]",
    "pEC50": "< 4.47"
  },
  {
    "substance": "GWFDVVKHIAKRF-NH2 [Peptide D70]",
    "pEC50": 5.52
  },
  {
    "substance": "NLVSGLIEARKYLEQLHRKLKNRKV [Peptide D88]",
    "pEC50": "< 4.48"
  }
]

Consider the additional substance presented here.
Recorded pEC50 of VDKPDYRPRPRPPNM [Metalnikowin I, reference compound] , please.
< 4.26

###

- experiment.description: in vitro
- assay.context: human
No end group written: not given here.
experimental.endpoint: CC50 at 6 days

[
  {
    "substance": "KRIVQRIKDFLRNLVPRTES [KR-20]",
    "experimental.endpoint": "CC50 at 6 days",
    "result": "> 40.5 µM"
  },
  {
    "substance": "GRFKRFRKKFKKLFK-NH2 [BMAP-15]",
    "experimental.endpoint": "CC50 at 6 days",
    "result": "> 49.6 µM"
  }
]

Consider the additional substance presented here.
Recorded CC50 at 6 days of KRIVQRIKDFLR-NH2 [KR-12] , please.
> 63.5 µM

Attribution: patent US8722616B2
